molecular target: T1, RSV postfusion F (postF), subtype A (respiratory syncytial virus subtype A, UniProt P03420 26-513); test: BLI
T1 construct: also called Postfusion subtype A; F deltaFP
PROPERTY MEASURED: binding result

# BINDER, RECORDED RESULT
data = [
    ("ADI-25496 (antibody, V domains shown, full-length IgG) VH: QVQLVQSGGGLVKPGGSLRLSCAASGFTFSSYSMNWVRQAPGKGLEWVSSISSSSSYIYYADSVKGRFTISRDNAKNSLYLQMNSLRAEDTAVYYCARVASEVWFFDLWGRGTLVTVSS VL: QPVLTQPPSVSGAPGQRVTISCTGSSSNIGAGYDVHWYQQLPGTAPKLLIYGNSNRPSGVPDRFSGSKSGTSASLAITGLQAEDEADYYCQSYDSSLSGYVFGTGTKLTVL", "no binding"),
    ("ADI-25577 (antibody, V domains shown, full-length IgG) VH: QVTLKESGGGLVKPGGSLRLSCAASGFTFSSYSMNWVRQAPGKGLEWVSSISSSSSYIYYADSVKGRFTISRDNAKNSLYLQMNSLRAEDTAVYYCARYSSSLGAFDIWGQGTMVTVSS VL: QSALTQPPSVSGAPGQRVTISCTGSSSNIGAGYDVHWYQQLPGTAPKLLIYGNSNRPSGVPDRFSGSKSGTSASLAITGLQAEDEADYYCQSYDSSLSDVFGTGTKLTVL", "no binding"),
    ("ADI-24840 (antibody, V domains shown, full-length IgG) VH: EVQLLESGGGLVKPGGSLRLSCAASGFTFSSYSMNWVRQAPGKGLEWVSSISSSSSYIYYADSVKGRFTISRDNAKNSLYLQMNSLRAEDTAVYYCARDQVYSYGYYFDYWGQGTLVTVSS VL: QSVLAQPPSVSGAPGQRVTISCTGSSSNIGAGYDVHWYQQLPGTAPKLLIYGNSNRPSGVPDRFSGSKSGTSASLAITGLQAEDEADYYCQSYDSSLSGSHVVFGGGTKLTVL", "no binding"),
]
